Recorded values, source the RNAGym collection of RNA variant scans (doi:10.1101/gr.219683.116).

B1: mRNA-splicing (parent)
chain: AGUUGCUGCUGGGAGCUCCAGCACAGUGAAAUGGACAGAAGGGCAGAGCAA

Variants of: B1
assay: exon inclusion enrichment index; higher = more inclusion; WT1 exon 5 minigene, HEK293
Label scheme, based on exon inclusion enrichment index: c1: < 0.07; c2: ≥ 0.07 and < 1; c3: ≥ 1

[
  {
    "mutation.key": "C6A U7C C9A U10C A45G G46C",
    "category": "c3"
  },
  {
    "mutation.key": "G5U G8U C9U G33A G34C",
    "category": "c1"
  },
  {
    "mutation.key": "C6A U7C C9A U10C A37C G38C",
    "category": "c3"
  },
  {
    "mutation.key": "G5C C6A G8C U10A",
    "category": "c2"
  },
  {
    "mutation.key": "G5C C6U G8C C9U U10C A20C G21U",
    "category": "c2"
  },
  {
    "mutation.key": "G5A C6U U7A G8U C9A G28A",
    "category": "c1"
  },
  {
    "mutation.key": "G5C C6G U7C U10C G13C A14G",
    "category": "c3"
  },
  {
    "mutation.key": "G43A C44G",
    "category": "c2"
  },
  {
    "mutation.key": "G5A C6U U7A G8U C9A C36A A37G",
    "category": "c1"
  },
  {
    "mutation.key": "G5A C6G U7G C9A G46U A47U",
    "category": "c1"
  },
  {
    "mutation.key": "G5A U7C G8A U10C C16G",
    "category": "c3"
  },
  {
    "mutation.key": "G5A C6G U7G C9A C22G A23C",
    "category": "c1"
  },
  {
    "mutation.key": "C6A U7A C9A U10A G46A A47C",
    "category": "c3"
  },
  {
    "mutation.key": "U4C G5C G8U C9U",
    "category": "c2"
  },
  {
    "mutation.key": "G5C C6U G8A U10C",
    "category": "c3"
  },
  {
    "mutation.key": "C24G A25U",
    "category": "c1"
  },
  {
    "mutation.key": "G26A U27G",
    "category": "c2"
  },
  {
    "mutation.key": "G5C C6A U7C G8A U10A U32A G33A",
    "category": "c1"
  },
  {
    "mutation.key": "G5C C6A U7C G8A U10A C36A A37C",
    "category": "c2"
  },
  {
    "mutation.key": "C18U",
    "category": "c3"
  },
  {
    "mutation.key": "G5C C6G U7C U10C G34U",
    "category": "c3"
  }
]
